Listing of entries alongside the reported Kd.
Target: T1, MICB005.His (human MICB*005 alpha 3 domain, His tagged) (human)
T1 construct: also called huMICB*005 alpha 3-his
T1 chain: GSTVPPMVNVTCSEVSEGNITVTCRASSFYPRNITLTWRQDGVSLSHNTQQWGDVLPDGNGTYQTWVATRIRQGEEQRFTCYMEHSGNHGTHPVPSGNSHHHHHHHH
Assay: SPR, antibody captured;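 also: SPR with antibody held by surface-bound anti-Fc while His-tagged alpha three domains flow over, Kd derived by fitting a one-to-one binding model to sensograms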
Express the result in nM but write the number alone.

**Query** May I ask what Kd has been recorded for 1E6.1.3 (antibody, V domains shown, Mouse hybridoma antibody; constant regions differ by assay) VH: QVQLKESGPGLVAPSQSLSITCTVSGFSLTGSGVNWVRQPPGQGLEWLGMIWGDGNTDYNSALKSRLSISKDNSKSQVFLKMNSLQTDDTARYYCARGAHYGKRWYFDVWGAGTTVTVSS VL: DIQMTQTTFSLSASLGDRVTISCSASQGINNYLNWYQQRPDGTVKLLIYYTSTLPSGVPSRFSGSGSGTDYSLTISNLEPEDIASYYCQQYSKLPPTFGGGTKVEIK ?
**Result** 18

**Query** Request: 7D4.6 (antibody, V domains shown, Mouse hybridoma antibody; constant regions differ by assay) VH: DVQLQESGPGLVKPSQSLSLTCTVTGYSITSDYAWNWIRQFPRNKLEWMGYINYSGTTNYNPSLKSRISITRDTSKNQFFLQLISVTTEDTATYYCSYYRYDGAWFPYWGQGTLVTVSA VL: DIQMTQSPASLSASVGETVTITCRASGNIHNYLAWYQQKQGKSPQLLVYNAIMLADGVPSRFSASGSGTQYSLKINSLQPEDFGSYYCQHFWSFPLTFGAGTKVEIK
**Result** 20

**Query** Request: 15F11 (antibody, V domains shown, Mouse variable domains; constant regions differ by assay) VH: EIQLQQSGPELVKPGASVRVSCKPSGYAFTSNNIYWVKQSRRKSLEWIGYIDPYIGRIIYNQQFKDKATLTVDKSSSTAYMHLNSLTSEDSAVYYCSRSGERSNFDYWGQGTTLTVSS VL: EIVLTQSPTAMAASPGEKITITCSASSSISSNYLHWYQQKPGFSPKLLIYRTSNLASGVPARFSGSGSGTSYSLTIGPMEAEDVATYYCQQGGSLPLTFGAGTKVEIK
**Result** 3.28

Continuing:
**Query** May I ask what Kd has been recorded for 20G11 (antibody, V domains shown, Mouse hybridoma antibody; constant regions differ by assay) VH: DVQLVESGGGLVQPGGSRKLSCAASGFTFSTFGIHWVRQAPEKGLEWVAYISYDSRTIYYADTVKGRFTISRDNPKNTLFLQMTSLRSEDTAMYYCARWAYEGGVNYFDNWGQGTTLTVSS VL: QIVLTQSPAIMSASLGERVTMTCTATSGVSSSYLHWYQQKPGSSPKLWIYSSSNLASGVPARFSGSGSGTSYSLTIGSMEAEDAATYYCHQFHRSPLTFGTGTKVEIK ?
**Result** 1.05

**Query** Request: 9C9.5.6 (antibody, V domains shown, Mouse hybridoma antibody; constant regions differ by assay) VH: QVQLKESGPGLVAPSQSLSITCTVSGFSLNGQGVNWVRQPPGKGLEWLGMIWGDGSTDYNSALKSRLSISKDNSRSQVFLKMNSLQTDDTARYYCARGAHYGKRWYFDVWGAGTTVTVSS VL: DIQMTQTTSSLSASLGDRVTISCSASQNINNYLNWYQQKPHGTVKLLIYYTSSLPSGVPSRFSGSGSGTDYSLTISNLEPEDIASYYCQQYSKLPPTFGGGTKVEIK
**Result** 11
